Test system: HL-60 cells differentiated into the neutrophil-like cells
Assay: β-hexosaminidase-secreting activity of neutrophil-like differentiated HL-60 cells
Assay type: cell-based, human
Conditions: neutrophil-like differentiated HL-60 cells; lowest concentration class at which secretion was confirmed
reportedProperty: Activity (β-hexosaminidase-secreting activity class)

# substance, systemName, reading
measured = [
    ("006 (MGGLWRPGWRCVPFCGWRWI) [compound 006]", "HL-60 cells differentiated into the neutrophil-like cells", "▴ x"),
]
